I'd be grateful if you could share measured IC50 for these entries.
System: interaction between PD-1 and PD-L1 (Homo sapiens (Human), UniProt Q9NZQ7)
Sequence (Q9NZQ7 19-238): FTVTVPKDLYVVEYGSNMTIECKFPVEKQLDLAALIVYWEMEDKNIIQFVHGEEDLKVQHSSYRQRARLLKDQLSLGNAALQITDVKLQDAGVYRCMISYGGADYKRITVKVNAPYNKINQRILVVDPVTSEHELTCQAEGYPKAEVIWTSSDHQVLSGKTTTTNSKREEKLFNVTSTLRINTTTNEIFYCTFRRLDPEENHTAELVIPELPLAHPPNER
Assay Notes: PD1-PDL1 HTRF binding activity test (Cisbio PD-1/PD-L1 binding assay kit)
Condition Set: read-out: PD1-PDL1 HTRF Binding Activity IC50
One number for each entry, in pM.

Use the examples below as a reference point.
COc1cc(C(=O)Nc2cccc(-c3cccc(NC(=O)c4cc(OC)c(CN[C@H]5CCOC5)cn4)c3C)c2C)ncc1CN[C@H]1CCOC1; 400
Cc1cc(C(=O)Nc2cccc(-c3cccc(NC(=O)c4cc(C)c(CN5CCC(F)(F)C5)cn4)c3C)c2C)ncc1CN1CCC(F)(F)C1; 227000
Cc1c(NC(=O)c2cc(C3CC3)c(CN3CC(C)(O)C3)cn2)cccc1-c1cccc(NC(=O)c2cc(C3CC3)c(CN3CC(C)(O)C3)cn2)c1C; 1430
COc1cc(C(=O)Nc2cccc(-c3cccc(NC(=O)c4cc(OC)c(CN[C@@H]5CCOC5)cn4)c3C)c2C)ncc1CN[C@@H]1CCOC1; 640

Hi, could you look up IC50 for each item in my list?
1. COC[C@H](NCc1cnc(C(=O)Nc2cccc(-c3cccc(NC(=O)c4cc(OC)c(CN[C@@H](COC)C(=O)O)cn4)c3C)c2C)cc1OC)C(=O)O
2. COc1cc(C(=O)Nc2cccc(-c3cccc(NC(=O)c4cc(OC)c(CN[C@H](CO)C(=O)O)cn4)c3C)c2C)ncc1CN[C@H](CO)C(=O)O

1: 650; 2: 180

* * *

System: interaction between PD-1 and PD-L1 expressed on cell surfaces (Homo sapiens (Human), UniProt Q9NZQ7)
Sequence (Q9NZQ7 19-290): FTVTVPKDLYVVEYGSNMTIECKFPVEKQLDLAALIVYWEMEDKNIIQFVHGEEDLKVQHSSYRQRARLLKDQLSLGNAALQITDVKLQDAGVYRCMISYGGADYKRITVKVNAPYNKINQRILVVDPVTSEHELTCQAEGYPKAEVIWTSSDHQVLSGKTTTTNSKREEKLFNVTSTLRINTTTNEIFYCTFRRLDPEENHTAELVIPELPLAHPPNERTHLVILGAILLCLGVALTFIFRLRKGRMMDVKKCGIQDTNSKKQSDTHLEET
Assay Notes: Jurkat reporter gene cellular assay (Jurkat/NF-κB-luc/PD1 cells cocultured with Raji-PD-L1 cells, OKT-3 stimulation)
Format: cell-based
Condition Set: NF-κB-luc reporter activation fold, 6 hrs; read-out: Cell Activity EC50
Measured Quantity: pEC50
One number for each entry, as −log10 of the molar value.

COc1cc(C(=O)Nc2cccc(-c3cccc(NC(=O)c4cc(OC)c(CN(C)CCO)cn4)c3C)c2C)ncc1CN(C)CCO; 6.93

Hi, could you look up pEC50 for each item in my list?
1. Cc1c(NC(=O)c2cc(C3CC3)c(CN(C)CC(=O)O)cn2)cccc1-c1cccc(NC(=O)c2cc(C3CC3)c(CN(C)CC(=O)O)cn2)c1C
2. Cc1c(NC(=O)c2cc(C3CC3)c(CN[C@H](C(=O)O)C(C)C)cn2)cccc1-c1cccc(NC(=O)c2cc(C3CC3)c(CN[C@H](C(=O)O)C(C)C)cn2)c1C

[6.22, 7.19]

* * *

I'd be grateful if you could share measured EC50 for these entries.
System: interaction between PD-1 and PD-L1 expressed on cell surfaces (Homo sapiens (Human), UniProt Q9NZQ7)
Assay Notes: Jurkat reporter gene cellular assay (Jurkat/NF-κB-luc/PD1 cells cocultured with Raji-PD-L1 cells, OKT-3 stimulation)
Assay type: cell-based
Condition Set: NF-κB-luc reporter activation fold, 6 hrs; read-out: Cell Activity EC50
Protocol: B. Jurkat Reporter Gene Cellular Assay The effect of compounds of the examples of the present invention and positive compounds on the interaction between PD-1 and PD-L1 expressed on cell surfaces, and the related influence on T cell functions, were determined by a Jurkat reporter gene cellular assay. […] 4. the reading of each well treated with the compound was compared with the reading of each well treated with DMSO to obtain the activation fold of the compound; and […]
Give bare numbers, in nM.

Use the examples below as a reference point.
COC(=O)[C@@H]1CCN(Cc2cnc(C(=O)Nc3cccc(-c4cccc(NC(=O)c5cc(C6CC6)c(CN6CC[C@@H](C(=O)OC)C6)cn5)c4C)c3C)cc2C2CC2)C1; 2580
Cc1cc(C(=O)Nc2cccc(-c3cccc(NC(=O)c4cc(C)c(CNCCO)cn4)c3C)c2C)ncc1CNCCO; 64
COc1cc(C(=O)Nc2cccc(-c3cccc(NC(=O)c4cc(OC)c(CNCC[S+](C)[O-])cn4)c3C)c2C)ncc1CNCC[S+](C)[O-] (stereo not drawn); 900
Cc1c(NC(=O)c2cc(C3CC3)c(CN[C@@H](CO)C(=O)O)cn2)cccc1-c1cccc(NC(=O)c2cc(C3CC3)c(CN[C@@H](CO)C(=O)O)cn2)c1C; 42.3

Now let's try a different one.
So what's the measured EC50 for this one? COc1cc(C(=O)Nc2cccc(-c3cccc(NC(=O)c4cc(OC)c(CNCCO)cn4)c3C)c2C)ncc1CNCCO
37
